Data credit: patent US20250313560A1

IC50 values, listed per item
Target: SOS1 and KRAS G12C (Homo sapiens (Human))
Sequence (Q07889 564-1049, stated change not applied): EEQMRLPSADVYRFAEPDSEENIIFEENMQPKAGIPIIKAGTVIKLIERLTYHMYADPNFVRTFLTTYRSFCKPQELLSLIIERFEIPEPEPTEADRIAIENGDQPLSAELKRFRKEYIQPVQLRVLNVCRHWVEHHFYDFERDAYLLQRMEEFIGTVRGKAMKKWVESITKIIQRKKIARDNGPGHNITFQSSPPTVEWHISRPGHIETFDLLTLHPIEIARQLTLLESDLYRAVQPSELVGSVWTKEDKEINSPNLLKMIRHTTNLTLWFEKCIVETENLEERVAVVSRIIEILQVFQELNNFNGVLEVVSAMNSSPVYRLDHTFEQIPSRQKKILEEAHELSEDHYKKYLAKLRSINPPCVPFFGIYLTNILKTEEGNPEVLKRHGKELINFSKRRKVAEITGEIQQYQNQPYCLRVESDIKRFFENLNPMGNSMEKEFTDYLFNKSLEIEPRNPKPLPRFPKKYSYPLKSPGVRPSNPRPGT
Experiment: KRAS::SOS1 AlphaScreen binding assay (KRAS G12C)
Details: average of at least two measurements
Protocol: Low IC50 values are indicative of high potency of the SOS1 inhibitor compound in this assay setting: […] Compounds are diluted to a final start concentration of 100 μM and are tested in duplicate. Assay-ready plates (ARPs) are generated using an Access Labcyte Workstation with a Labcyte Echo 550 or 555 acoustic dispenser. […] Result calculation: IC50 values are calculated and analyzed using a 4 parametric logistic model. […]
measuredEndpoint: IC50 (nM)

>>> number("C[C@@H](NC(=O)c1cc(N2CCC(N3C[C@@H](O)C4(CC4)C3)CC2)c2ncnn2c1)c1cccc(C(F)(F)F)c1F")
59
>>> number("C[C@@H](NC(=O)c1cc(N2CCC(N3C[C@@H](O)[C@@H]3C)CC2)c2ncnn2c1)c1cccc(C(F)(F)F)c1F")
44
>>> number("C[C@@H](NC(=O)c1cc(N2CCC(N3CCC[C@H]3CO)CC2)c2ncnn2c1)c1cccc(C(F)(F)F)c1F")
33
>>> number("CC(C)N1CC=C(c2cc(C(=O)N[C@H](C)c3cccc(C(F)(F)F)c3F)cn3cnnc23)CC1")
30

###

System: human hepatocytes
Test: Metabolic stability in human hepatocytes
Conditions: 1 μM test compound, 50% human serum, percentage of liver blood flow
The following compounds are shown together with reported Hepatic clearance - QH[%] in human hepatocytes values.
measuredEndpoint: Hepatic clearance - QH[%] in human hepatocytes (%)

>>> number("C[C@@H](NC(=O)c1cc([C@H]2CC[C@H](N3CCC[C@H](O)C3)CC2)c2ncnn2c1)c1cccc(C(F)(F)F)c1F [Example E67]")
10
>>> number("C[C@@H](NC(=O)c1cc(N2CCC(N3CC[C@H](CO)C3)CC2)c2ncnn2c1)c1cccc(C(F)(F)F)c1F [Example E26]")
8
>>> number("C[C@@H](O)CNC1CCN(c2cc(C(=O)N[C@H](C)c3cccc(C(F)(F)F)c3F)cn3ncnc23)CC1 [Example E39]")
43
>>> number("C[C@@H](NC(=O)c1cc([C@H]2CC[C@H](N3CCC[C@@H](O)C3)CC2)c2ncnn2c1)c1cccc(C(F)(F)F)c1F [Example E68]")
12
>>> number("C[C@@H](NC(=O)c1cc(N2CCC(N3CCO[C@H](CO)C3)CC2)c2ncnn2c1)c1cccc(C(F)F)c1F [Example E14]")
31

###

Molecular target: SOS1 and KRAS G12D (Homo sapiens (Human))
Test: KRAS::SOS1 AlphaScreen binding assay (KRAS G12D)
Conditions: average of at least two measurements
Experimental: Low IC50 values are indicative of high potency of the SOS1 inhibitor compound in this assay setting: […] Compounds are diluted to a final start concentration of 100 μM and are tested in duplicate. Assay-ready plates (ARPs) are generated using an Access Labcyte Workstation with a Labcyte Echo 550 or 555 acoustic dispenser. […] Result calculation: IC50 values are calculated and analyzed using a 4 parametric logistic model. […]
Below, each entry is listed alongside its reported IC50.
measuredEndpoint: IC50 (nM)

>>> number("C[C@@H](NC(=O)c1cc(N2CCC(N3CCC[C@H](O)C3)CC2)c2ncnn2c1)c1cccc(C(F)(F)F)c1F [Example E44]")
42
>>> number("Cc1nc2c([C@H]3CC[C@H](N4CCC[C@H](O)C4)CC3)cc(C(=O)N[C@H](C)c3cccc(C(F)F)c3F)cn2n1 [Example E85]")
24
>>> number("C[C@@H](NC(=O)c1cc([C@H]2CC[C@H](N3C[C@H](F)C[C@@H]3CO)CC2)c2ncnn2c1)c1cccc(C(F)F)c1F [Example E60]")
20

###

Target: SOS1 and KRAS G12D (Homo sapiens (Human), UniProt Q07889)
Sequence (Q07889 564-1049, stated change not applied): as the sequence (Q07889 564-1049, stated change not applied) above
Assay: KRAS::SOS1 AlphaScreen binding assay (KRAS G12D)
Conditions: average of at least two measurements
Please note: IC50 exactly at 40 nM is f. Only values below 40 nM get t.

>>> cat("C[C@@H](NC(=O)c1cc(N2CCC(N3CC[C@@H](O)C3)CC2)c2ncnn2c1)c1cccc(C(F)(F)F)c1F [Example E57]")
"f"
>>> cat("C[C@@H](NC(=O)c1cc(N2CCC(N3CCC4(CC4)C3)CC2)c2ncnn2c1)c1cccc(C(F)(F)F)c1F [Example E33]")
"f"
>>> cat("C[C@@H](NC(=O)c1cc(N2CCC(N3CC[C@@](C)(O)C3)CC2)c2ncnn2c1)c1cccc(C(F)F)c1F [Example E5]")
"f"
>>> cat("C[C@@H](NC(=O)c1cc(N2CCC(NC3COCC3O)CC2)c2ncnn2c1)c1cccc(C(F)F)c1F (single isomer, unassigned) [Example cis-E16b]")
"t"

###

Target: UniProt P08684
Sequence (P08684 whole entry): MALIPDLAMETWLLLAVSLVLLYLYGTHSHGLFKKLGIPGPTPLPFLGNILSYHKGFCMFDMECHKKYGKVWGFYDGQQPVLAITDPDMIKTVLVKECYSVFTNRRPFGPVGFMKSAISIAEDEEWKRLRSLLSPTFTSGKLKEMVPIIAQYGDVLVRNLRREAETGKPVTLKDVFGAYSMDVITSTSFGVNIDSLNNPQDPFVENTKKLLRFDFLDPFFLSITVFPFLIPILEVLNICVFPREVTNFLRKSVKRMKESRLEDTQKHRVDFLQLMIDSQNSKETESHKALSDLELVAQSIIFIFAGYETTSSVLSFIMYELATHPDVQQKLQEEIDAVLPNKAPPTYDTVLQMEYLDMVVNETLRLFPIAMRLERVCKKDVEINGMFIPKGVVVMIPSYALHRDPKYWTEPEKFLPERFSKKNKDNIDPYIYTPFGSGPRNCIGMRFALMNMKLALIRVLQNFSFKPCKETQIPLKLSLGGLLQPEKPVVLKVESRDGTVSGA
Test: Cytochrome P450 isoenzyme inhibition assay (P450 3A4, midazolam)
Format: in vitro ADME
Details: human liver microsomes, Midazolam as substrate; read-out: CYP3A4 inhibition IC50
Protocol: For the following cytochrome P450 isoenzymes, these substrates and metabolic reactions are monitored: P450 3A4: hydroxylation of Midazolam (MDZ). The final incubation volume contains TRIS buffer (0.1 M), MgCl2 (5 mM), a certain concentration of human liver microsomes dependent on the P450 isoenzyme measured (P450 3A4: 0.1 mg/ml) and a certain concentration of the individual substrate for each isoenzyme (P450 3A4: Midazolam 5 μM). […]
Recorded IC50 for the following molecules
measuredEndpoint: IC50

>>> result("C[C@@H](NC(=O)c1cc(N2CCC(N3C[C@@H](O)C[C@@H]3C)CC2)c2ncnn2c1)c1cccc(C(F)F)c1F [Example E12]")
"> 50 µM"
>>> result("C[C@@H](NC(=O)c1cc(N2CCC3(CCCN3)CC2)c2ncnn2c1)c1cccc(C(F)(F)F)c1F [Example E34]")
"> 50 µM"
>>> result("C[C@@H](NC(=O)c1cc(N2CCC(N3CC4CC4C3CO)CC2)c2ncnn2c1)c1cccc(C(F)F)c1F (single isomer, unassigned) [Example cis-E11b]")
"> 50 µM"

###

Molecular target: SOS1 and KRAS G12C (Homo sapiens (Human))
Assay: KRAS::SOS1 AlphaScreen binding assay (KRAS G12C)
Conditions: average of at least two measurements
# IC50 annotations
measuredEndpoint: IC50 (nM)

>>> number("C[C@@H](NC(=O)c1cc(N2CCC(N(C)CCO)CC2)c2ncnn2c1)c1cccc(C(F)(F)F)c1F")
69
>>> number("C[C@@H](NC(=O)c1cc([C@H]2CC[C@H](N3CC[C@H](O)C3)CC2)c2ncnn2c1)c1cccc(C(F)(F)F)c1F")
28
>>> number("C[C@@H](NC(=O)c1cc(C2=CCC(N3CCC[C@H](O)C3)CC2)c2nncn2c1)c1cccc(C(F)F)c1F (some centres unmarked)")
20
>>> number("Cc1c([C@@H](C)NC(=O)c2cc(N3CCC4(CCCN4C)CC3)c3nnc(C)n3c2)cccc1C(F)(F)F")
37
>>> number("C[C@@H](NC(=O)c1cc(N2CCC(N3CCC[C@H]3CO)CC2)c2ncnn2c1)c1cccc(C(C)(F)F)c1F")
33
>>> number("C[C@H](CO)NC1CCN(c2cc(C(=O)N[C@H](C)c3cccc(C(F)(F)F)c3F)cn3ncnc23)CC1")
39
>>> number("C[C@@H](NC(=O)c1cc(N2CCC3(CCCCN3C)CC2)c2ncnn2c1)c1cccc(C(F)(F)F)c1F")
34
>>> number("C[C@@H](NC(=O)c1cc(N2CCC(N3CC[C@@H](O)C3)CC2)c2ncnn2c1)c1cccc(C(F)F)c1F [Example E2]")
55
>>> number("C[C@@H](NC(=O)c1cc(N2CCC(N3CCCC(O)CC3)CC2)c2ncnn2c1)c1cccc(C(F)(F)F)c1F (single isomer, unassigned) [Example E43b]")
34
>>> number("C[C@@H](NC(=O)c1cc(N2CCC(N3CCCCC3)CC2)c2ncnn2c1)c1cccc(C(F)(F)F)c1F")
49
>>> number("C[C@@H](NC(=O)c1cc([C@H]2CC[C@H](N3CCC(F)C(O)C3)CC2)c2ncnn2c1)c1cccc(C(F)(F)F)c1F (single isomer, unassigned) [Example trans-E70a]")
29
>>> number("C[C@@H](NC(=O)c1cc(N2CCC(N3C[C@@H](O)C[C@@H]3C)CC2)c2ncnn2c1)c1cccc(C(F)F)c1F")
30
>>> number("C[C@@H](NC(=O)c1cc(N2CCC(N3CC4CC4(CO)C3)CC2)c2ncnn2c1)c1cccc(C(F)F)c1F (single isomer, unassigned) [Example cis-E21a]")
81
>>> number("C[C@@H](NC(=O)c1cc(N2CCC3(CCCN3C)CC2)c2ncnn2c1)c1cccc(C(C)(F)F)c1F")
26

###

# reported IC50; entries follow
Test system: ERK phosphorylation in NCI-H358 SOS2 KO cells (KRAS G12C)
Test: Erk phosphorylation assay
Assay type: cell-based, human
Conditions: NCI-H358 SOS2 KO cells, EGF stimulated; average of at least two measurements; read-out: pERK IC50
measuredEndpoint: IC50 (nM)

>>> number("C[C@@H](NC(=O)c1cc([C@H]2CC[C@H](N3CCC(F)C(O)C3)CC2)c2ncnn2c1)c1cccc(C(F)F)c1F (single isomer, unassigned) [trans-E61a]")
391
>>> number("C[C@@H](NC(=O)c1cc(N2CCC(N3CCCC(O)CC3)CC2)c2ncnn2c1)c1cccc(C(F)(F)F)c1F (single isomer, unassigned) [Example E43b]")
101
>>> number("C[C@@H](NC(=O)c1cc(N2CCC(NC3COCC3O)CC2)c2ncnn2c1)c1cccc(C(F)(F)F)c1F (single isomer, unassigned) [Example trans-E42a]")
183
>>> number("C[C@@H](NC(=O)c1cc(N2CCC(NC3COCC3O)CC2)c2ncnn2c1)c1cccc(C(F)(F)F)c1F (single isomer, unassigned) [Example trans-E42b]")
153
>>> number("C[C@@H](NC(=O)c1cc([C@H]2CC[C@H](N3CCC(F)C(O)C3)CC2)c2ncnn2c1)c1cccc(C(F)F)c1F (single isomer, unassigned) [Example trans-E61b]")
138
>>> number("C[C@@H](NC(=O)c1cc(N2CCC(N3CC4CC4(CO)C3)CC2)c2ncnn2c1)c1cccc(C(F)F)c1F (single isomer, unassigned) [Example cis-E21b]")
242
>>> number("C[C@@H](NC(=O)c1cc(N2CCC(NC3CCCC3(C)O)CC2)c2ncnn2c1)c1cccc(C(F)(F)F)c1F (single isomer, unassigned) [Example trans-E53b]")
287
>>> number("C[C@@H](NC(=O)c1cc(N2CCC(N3CC4CC4C3CO)CC2)c2ncnn2c1)c1cccc(C(F)F)c1F (single isomer, unassigned) [Example cis-E11b]")
145
>>> number("C[C@@H](NC(=O)c1cc(N2CCC(N3CCCC(O)CC3)CC2)c2ncnn2c1)c1cccc(C(F)(F)F)c1F (single isomer, unassigned) [Example E43a]")
46
>>> number("C[C@@H](NC(=O)c1cc(N2CCC(NC3CCCC3(C)O)CC2)c2ncnn2c1)c1cccc(C(F)(F)F)c1F (single isomer, unassigned) [Example trans-E53a]")
143
>>> number("C[C@@H](NC(=O)c1cc(N2CCC(O)(C3CCCN3)CC2)c2ncnn2c1)c1cccc(C(F)F)c1F (single isomer, unassigned) [Example E38b]")
217
